Entry source: paper PMC10441386

molecular target: PSD-95 PDZ3cα protein (residues R309-S422) (UniProt P78352 309-422); experiment: SPR
Sequence (P78352 309-422): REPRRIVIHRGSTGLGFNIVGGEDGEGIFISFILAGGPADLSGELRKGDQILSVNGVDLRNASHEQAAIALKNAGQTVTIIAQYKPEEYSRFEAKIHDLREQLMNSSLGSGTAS
Non-standard residues stand in square brackets, D forms with d. No end group written: not given here. Phe(4-NH2) = Nc1ccc(C[C@H](N)C(=O)O)cc1
measure name: log10 kon (log10 of the value in M⁻¹ s⁻¹)

* RRRRRRGSF[dP]PWVQQTRV [SYNGAP peptide D-Pro4] | 6.27
* GSFPPWVQ [aC binder peptide] | 3.00
* RRRRRRGSFPPW[dV]QQTRV [SYNGAP peptide D-Val8] | 6.34
* RRRRRRGSFP[dP]WVQQTRV [SYNGAP peptide D-Pro5] | 6.26
* RRRRRRG[dS]FPPWVQQTRV [SYNGAP peptide D-Ser3] | 5.80
* D-Syn3 (cysteine pairing not given here; also: D- prefix in name, meaning not given here) chain 1: RRRRRRRC chain 2: CGSFPPWVQKTEV | 5.66
* RRRRRRGS[Phe(4-NH2)]PPWVQQTRV [SYNGAP peptide F4-NH2F] | 5.18
